Test: Stability in phosphate buffer at pH 7.4 at 37 degC at 100 uM after 24 hrs
Type: physicochemical
Details: phosphate buffer, pH 7.4; read-out: Stability
I'd appreciate it if you marked entries T when remaining at 24 h, 100 µM is lower than 80% and F when it is not.

Below, 3 molecules whose answers are already recorded.
>>> group_label("Nc1ccn([C@@H]2O[C@H](COP3(=O)OCC[C@H](c4ccncc4)O3)[C@@H](O)[C@@H]2O)c(=O)n1 (stereo in doubt; 19R)")
"F"
>>> group_label("COC(=O)c1ccc([C@H]2CCOP(=O)(OC[C@H]3O[C@@H](n4ccc(N)nc4=O)[C@@H](O)[C@@H]3O)O2)cc1 (stereo partly specified)")
"F"
>>> group_label("Nc1ccn([C@@H]2O[C@H](COP3(=O)OCC[C@H](c4cccc(Cl)c4)O3)[C@@H](O)[C@@H]2O)c(=O)n1 (stereo partly specified)")
"T"

QUERY: Does the reported remaining at 24 h, 100 µM of Nc1ccn([C@@H]2O[C@H](COP3(=O)OCC[C@H](c4cccnc4)O3)[C@@H](O)[C@@H]2O)c(=O)n1 (stereo partly specified) stay below 80%?
RESULT: F

QUERY: Entry Nc1ccn([C@@H]2O[C@H](COP3(=O)OCC[C@H](c4ccc(F)c(Cl)c4)O3)[C@@H](O)[C@@H]2O)c(=O)n1 (stereo partly specified) please
RESULT: T

###

Assay: Aqueous solubility in phosphate buffer at pH 7.4
Type: physicochemical
Details: phosphate buffer, read-out: Solubility
OBSERVATION TYPE: solubility (µg/mL)
I only need the number, in µg/mL, no unit after it.

Here is how some compounds turned out for solubility.
>>> endpoint_value("Nc1ccn([C@@H]2O[C@H](COP3(=O)OCC[C@H](c4cccc(Cl)c4)O3)[C@@H](O)[C@@H]2O)c(=O)n1 (some centres not stated)")
1700
>>> endpoint_value("Nc1ccn([C@@H]2O[C@H](COP3(=O)OCC[C@H](c4ccc(F)c(Cl)c4)O3)[C@@H](O)[C@@H]2O)c(=O)n1 (some centres not stated)")
3200
>>> endpoint_value("Nc1ccn([C@@H]2O[C@H](COP3(=O)OCC[C@H](c4cc(Cl)cc(Cl)c4)O3)[C@@H](O)[C@@H]2O)c(=O)n1 (some centres not stated)")
500

QUERY: Returns the measured solubility for the input compound. Input: COC(=O)c1cccc([C@H]2CCOP(=O)(OC[C@H]3O[C@@H](n4ccc(N)nc4=O)[C@@H](O)[C@@H]3O)O2)c1 (some centres not stated)
RESULT: 7200

QUERY: Entry Nc1ccn([C@@H]2O[C@H](COP3(=O)OCC[C@H](c4cccnc4)O3)[C@@H](O)[C@@H]2O)c(=O)n1 (some centres not stated) please
RESULT: 176000

QUERY: Entry COC(=O)c1ccc([C@H]2CCOP(=O)(OC[C@H]3O[C@@H](n4ccc(N)nc4=O)[C@@H](O)[C@@H]3O)O2)cc1 (some centres not stated) please
RESULT: 5700

QUERY: Entry Nc1ccn([C@@H]2O[C@H](COP3(=O)OCC[C@@H](c4ccncc4)O3)[C@@H](O)[C@@H]2O)c(=O)n1 (some centres not stated) please
RESULT: 7100

###

Entries and their remaining at 24 h, 100 µM values follow.
Assay: Stability in phosphate buffer at pH 7.4 at 37 degC at 100 uM after 24 hrs
Assay type: physicochemical
Details: phosphate buffer, pH 7.4; read-out: Stability
I only need the number, in %, no unit after it.

Here is how some molecules turned out for remaining at 24 h, 100 µM.
>>> endpoint_value("Nc1ccn([C@@H]2O[C@H](COP3(=O)OCC[C@H](c4ccc(Br)cc4)O3)[C@@H](O)[C@@H]2O)c(=O)n1 (some centres undefined)")
9
>>> endpoint_value("COC(=O)c1cccc([C@H]2CCOP(=O)(OC[C@H]3O[C@@H](n4ccc(N)nc4=O)[C@@H](O)[C@@H]3O)O2)c1 (some centres undefined)")
60

// below: remaining at 24 h, 100 µM requested for another molecule
QUERY: Returns the measured remaining at 24 h, 100 µM for the input molecule. Input: Nc1ccn([C@@H]2O[C@H](COP3(=O)OCC[C@H](c4ccc(Cl)cc4)O3)[C@@H](O)[C@@H]2O)c(=O)n1 (some centres undefined)
RESULT: 5
